# tested_system: F508delCFTR (Homo sapiens, UniProt P13569, DEL508-508)
# Construct: expressed in transfected cells; host or cells: CFBE41o- human lung-derived epithelial cells (CFBE4lo-F508delCFTR-HRP), doxycycline-inducible
# Sequence (P13569 with tags, fused parts or gaps DEL508-508): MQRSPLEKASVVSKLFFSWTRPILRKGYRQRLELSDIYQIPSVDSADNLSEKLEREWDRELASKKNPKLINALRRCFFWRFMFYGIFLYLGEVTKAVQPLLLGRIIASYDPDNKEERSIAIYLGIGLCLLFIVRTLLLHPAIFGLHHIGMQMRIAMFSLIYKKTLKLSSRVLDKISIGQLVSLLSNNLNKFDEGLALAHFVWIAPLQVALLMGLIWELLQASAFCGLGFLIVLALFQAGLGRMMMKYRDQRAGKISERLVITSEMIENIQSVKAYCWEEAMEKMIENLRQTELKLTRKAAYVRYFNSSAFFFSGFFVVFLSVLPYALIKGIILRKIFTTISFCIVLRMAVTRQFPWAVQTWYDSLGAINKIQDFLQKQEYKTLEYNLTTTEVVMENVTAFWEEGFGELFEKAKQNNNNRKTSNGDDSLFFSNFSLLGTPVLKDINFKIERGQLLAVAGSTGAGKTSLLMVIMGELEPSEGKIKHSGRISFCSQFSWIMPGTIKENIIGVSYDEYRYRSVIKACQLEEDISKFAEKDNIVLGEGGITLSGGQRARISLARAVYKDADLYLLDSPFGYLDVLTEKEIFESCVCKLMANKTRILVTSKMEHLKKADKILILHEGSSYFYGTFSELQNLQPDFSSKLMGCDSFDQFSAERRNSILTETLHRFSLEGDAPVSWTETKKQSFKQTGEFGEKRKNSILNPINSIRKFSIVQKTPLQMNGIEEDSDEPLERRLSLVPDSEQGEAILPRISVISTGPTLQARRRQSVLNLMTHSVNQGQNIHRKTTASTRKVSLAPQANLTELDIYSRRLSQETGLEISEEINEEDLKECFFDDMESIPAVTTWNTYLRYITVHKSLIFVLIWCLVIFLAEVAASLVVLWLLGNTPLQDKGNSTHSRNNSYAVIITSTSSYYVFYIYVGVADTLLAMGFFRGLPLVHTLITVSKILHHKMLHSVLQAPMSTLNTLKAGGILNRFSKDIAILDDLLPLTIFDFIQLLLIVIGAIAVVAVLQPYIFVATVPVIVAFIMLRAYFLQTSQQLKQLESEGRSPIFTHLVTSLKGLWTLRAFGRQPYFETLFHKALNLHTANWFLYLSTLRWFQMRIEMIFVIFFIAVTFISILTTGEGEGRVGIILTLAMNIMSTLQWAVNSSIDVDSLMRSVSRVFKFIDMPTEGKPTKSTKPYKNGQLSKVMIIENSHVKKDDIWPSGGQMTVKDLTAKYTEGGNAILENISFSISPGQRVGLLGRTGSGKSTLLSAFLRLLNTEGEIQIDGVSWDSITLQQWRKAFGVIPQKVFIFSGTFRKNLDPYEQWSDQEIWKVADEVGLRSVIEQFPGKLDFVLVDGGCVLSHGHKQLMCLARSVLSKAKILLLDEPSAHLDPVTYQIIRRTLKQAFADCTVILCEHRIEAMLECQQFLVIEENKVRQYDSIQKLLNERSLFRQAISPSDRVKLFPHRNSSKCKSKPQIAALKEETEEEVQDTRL
# assay_procedure: Cell Surface Expression-Horse Radish Peroxidase (CSE-HRP) Assay;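 on Maximum % activity (without co-corrector): percent of the 2 µM on-plate positive control corrector response above DMSO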
# Assay type: cell-based
# assay_conditions: CSE-HRP; without co-corrector; maximum at any tested concentration, normalized to on-plate positive control; read-out: Maximum % activity (without co-corrector)
property_name: Emax

Examples with answers:
[
  {
    "smiles_text": "CCOc1ccc(Br)cc1CN[C@H]1[C@H](C(C)(C)C)[C@@H](C(=O)O)N(C(=O)C2CCCCC2)[C@H]1c1ccccc1",
    "tested_system": "F508delCFTR (Homo sapiens, UniProt P13569, DEL508-508)",
    "observed_measurement": "100 to 200%"
  },
  {
    "smiles_text": "COc1ccc(C(C)(C)C)cc1CN[C@H]1[C@H](C(C)(C)OC)[C@@H](C(=O)O)N(C(=O)C2CCCCC2)[C@H]1c1ccccc1OC",
    "tested_system": "F508delCFTR (Homo sapiens, UniProt P13569, DEL508-508)",
    "observed_measurement": "> 200%"
  },
  {
    "smiles_text": "COc1ccc(-c2ccco2)cc1CN[C@H]1[C@H](C(C)(C)C)[C@@H](C(=O)O)N(C(=O)C2CCCCC2)[C@H]1c1ccccc1",
    "tested_system": "F508delCFTR (Homo sapiens, UniProt P13569, DEL508-508)",
    "observed_measurement": "> 200%"
  }
]

I would be grateful if you could provide Emax for each of the following entries.
1. CC(C)(C)[C@H]1[C@H](NCc2cc(Cl)cc(Cl)c2)[C@H](c2ccccc2)N(C(=O)C2CCCCC2)[C@@H]1C(=O)O
2. COc1ncc(CC2CCCCC2)cc1CN[C@H]1[C@H](C(C)(C)OC)[C@@H](C(=O)O)N(C(=O)C2CCCCC2)[C@H]1c1ccccc1
3. COc1ccc(C(C)(C)C)cc1CN[C@H]1[C@H](C(C)(C)C)[C@@H](C(=O)O)N(C(=O)Cc2c(F)cccc2F)[C@H]1c1ccccc1

**Result**
1: < 100%; 2: 100 to 200%; 3: > 200%

###

# tested_system: F508delCFTR (Homo sapiens, UniProt P13569, DEL508-508)
# Construct: expressed in transfected cells; host or cells: CFBE41o- human lung-derived epithelial cells (CFBE4lo-F508delCFTR-HRP), doxycycline-inducible
# assay_procedure: Cell Surface Expression-Horse Radish Peroxidase (CSE-HRP) Assay;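 on Maximum % activity (with co-corrector): co-corrector and positive control are both the same reference corrector at 2 µM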
# Type: cell-based
# assay_conditions: with co-corrector (2 μM); maximum at any tested concentration, normalized to on-plate positive control

[
  {
    "smiles_text": "COc1ccc(C(C)(C)C)cc1CN[C@H]1[C@H](C(C)(C)C)[C@@H](C(=O)O)N(C(=O)[C@@H]2CCCO2)[C@H]1c1ccccc1C(C)C",
    "Maximum % activity (with co-corrector)": "+++ (≥350)"
  },
  {
    "smiles_text": "COc1c(C#N)c(N[C@H]2[C@H](C(C)(C)C)[C@@H](C(=O)O)N(C(=O)C3CCCCC3)[C@H]2c2ccccc2)nc2ccccc12",
    "Maximum % activity (with co-corrector)": "+++ (≥350)"
  }
]
